Provenance of the data: patent US20110218188A1

- assayProtocol: Measurement of logP values by HPLC on reversed phase columns (EEC directive 79/831 Annex V.A8)
- Format: physicochemical
- experimentalParameters: pH 2.7
Quick reference: logP of the listed items.
Answer with a number only.

[[record]]
molecule = "CCC(=NOC(C1CC1)C1CC1)c1cc(-c2ncnc(Nc3cccc(Cl)c3)n2)ccn1 (mixture of isomers) [B79]"
measurement = 6.59

[[record]]
molecule = "COCC(C)NC(=O)c1cc(-c2ncnc(Nc3ccc(C)c(Cl)c3)n2)ccn1 (stereo not drawn) [Example B225]"
measurement = 3.8

[[record]]
molecule = "CN(CCC#N)C(=O)c1cc(-c2ncnc(Nc3cccc(F)c3)n2)ccn1 [Example B1]"
measurement = 2.22

[[record]]
molecule = "CCN(C)C(=S)c1cc(-c2ncnc(N(C(C)=O)c3cccc(F)c3)n2)ccn1 [Example B339]"
measurement = 2.73

[[record]]
molecule = "CN(CC1CC1)C(=O)c1cc(-c2ncnc(Nc3cccc(F)c3)n2)ccn1 [Example B4]"
measurement = 2.82


Next item in the queue.
*Q* Using known records, supply logP for CC(C)CN(C)C(=O)c1cc(-c2ncnc(Nc3cccc(Cl)c3)n2)ccn1 [Example B151]
*A* 3.42

====

- assayProtocol: Measurement of logP values by HPLC on reversed phase columns (EEC directive 79/831 Annex V.A8)
- Format: physicochemical
- experimentalParameters: pH 2.7
Give criterion met when the value for logP is at least 3. Give criterion not met when it is less.

Worked cases, answers included:
[[record]]
compound = "CCN(C)C(=O)c1cc(-c2ncnc(Nc3ccc(OC)nc3)n2)ccn1"
labelvalue = "criterion not met"

[[record]]
compound = "CCCCN(CCCC)C(=O)c1cc(-c2ncnc(Nc3cccc(Cl)c3)n2)ccn1"
labelvalue = "criterion met"

[[record]]
compound = "CN(CC(F)F)C(=O)c1cc(-c2ncnc(Nc3ccc(F)c(C(F)F)c3)n2)ccn1"
labelvalue = "criterion not met"


*Q* I'd appreciate it if you could say whether CC1CCCN1C(=O)c1cc(-c2ncnc(Nc3cccc(Cl)c3)n2)ccn1 (stereo not drawn) has logP at least equal to 3.
*A* criterion met

*Q* Check this compound for logP at or above 3: COCCN(C)C(=O)c1cc(-c2ncnc(Nc3cccc(OC)c3)n2)ccn1
*A* criterion not met

====

- assayProtocol: Measurement of logP values by HPLC on reversed phase columns (EEC directive 79/831 Annex V.A8)
- Type: physicochemical
- experimentalParameters: pH 2.7
endpointName: logP

Below, 5 compounds whose answers are already recorded.
[[record]]
compound = "O=C(c1cc(-c2ncnc(Nc3cccc(Cl)c3)n2)ccn1)N1CCCC1 [Example B28]"
endpointname = "logP"
measurement = 2.88

[[record]]
compound = "CN(CC1CC1)C(=O)c1cc(-c2ncnc(Nc3ccc(F)c(Cl)c3)n2)ccn1 [Example B204]"
endpointname = "logP"
measurement = 3.23

[[record]]
compound = "CN(CCC#N)C(=O)c1cc(-c2ncnc(Nc3cccc(Cl)c3)n2)ccn1 [Example B129]"
endpointname = "logP"
measurement = 2.51

[[record]]
compound = "CCCN(C)C(=O)c1cc(-c2ccnc(Nc3ccnc(Cl)c3)n2)ccn1 [Example A13]"
endpointname = "logP"
measurement = 2.2

[[record]]
compound = "CCCN(C)C(=O)c1cc(-c2ncnc(Nc3ccsc3)n2)ccn1 [Example C14]"
endpointname = "logP"
measurement = 2.45


*Q* Please supply the value of reported logP for the item O=C(NCCCN1CCCC1=O)c1cc(-c2ncnc(Nc3cccc(Cl)c3)n2)ccn1 [B100]
*A* 2.63

*Q* // fetch logP given entry CCCC(C)NC(=O)c1cc(-c2ncnc(Nc3cccc(SC)c3)n2)ccn1 (stereo not drawn) [B221]
*A* 4.44

*Q* # return recorded logP for input CN(CC(F)F)C(=O)c1cc(-c2ncnc(Nc3cccc(C#N)c3)n2)ccn1 [Example B369]
*A* 2.45

*Q* # return recorded logP for entry CCN(CC)C(=O)c1cc(-c2ncnc(Nc3cccc(OC(F)F)c3)n2)ccn1 [Example B298]
*A* 2.88
